# System: A549
# METHOD: Cytotoxicity against human A549 cells after 48 hrs by SRB assay
# Format: functional, cell-based
# CONDITIONS USED: A549, 48 h
What pIC50 was measured for each of the following?
Answers are plain numbers, as −log10 of the molar value.

Would you please look over these solved cases?
**Q:** Fill in: pIC50 of C=C(CC[C@@H](C)[C@H]1CC[C@H]2C3=C(C(=O)C[C@]12C)[C@@]1(C)CCC(=O)[C@](C)(O)[C@@H]1C[C@@H]3O)[C@@H](C)C(=O)OC is ___
**A:** 4.03

**Q:** Fill in: pIC50 of C=C(CC[C@@H](C)[C@H]1CC[C@H]2C3=C(C(=O)[C@H](O)[C@]12C)[C@@]1(C)CCC(=O)[C@@H](C)[C@@H]1CC3=O)[C@H](C)C(=O)O is ___
**A:** 4.07

**Q:** Fill in: pIC50 of C=C(CC[C@@H](C)[C@H]1CC[C@H]2C3=C(C(=O)C[C@]12C)[C@@]1(C)CCC(=O)[C@@H](C)[C@@H]1C[C@@H]3O)[C@H](C)C(=O)O is ___
**A:** 4.12

**Q:** Fill in: pIC50 of CC(=O)CC[C@@H](C)[C@H]1CC[C@H]2C3=C(C(=O)C[C@]12C)[C@@]1(C)CCC(=O)[C@@H](C)[C@@H]1CC3=O is ___
**A:** 4.18

Consider now this further compound.
**Q:** Fill in: pIC50 of C=C(CC[C@@H](C)[C@H]1CC[C@H]2C3=C(C(=O)[C@H](O)[C@]12C)[C@@]1(C)CC[C@@H](O)[C@@H](C)[C@@H]1CC3=O)[C@@H](C)C(=O)O is ___
**A:** 4.66

----------
# Test system: Hs68
# METHOD: Cytotoxicity against human HS68 cells at 25 to 200 uM after 48 hrs by SRB assay
# Type: cell-based
# CONDITIONS USED: hs68, 48 h
REPORTED METRIC: Activity

Would you please look over these solved cases?
**Q:** Fill in: Activity of C=C(CC[C@@H](C)[C@H]1CC[C@H]2C3=C(C(=O)C[C@]12C)[C@@]1(C)CCC(=O)[C@@H](C)[C@@H]1CC3=O)[C@@H](C)C(=O)O is ___
**A:** Non-toxic

**Q:** Fill in: Activity of C=C(CC[C@@H](C)[C@H]1CC[C@H]2C3=C(C(=O)C[C@]12C)[C@@]1(C)CC[C@@H](O)[C@](C)(O)[C@@H]1C[C@@H]3O)[C@H](C)C(=O)O is ___
**A:** Non-toxic

**Q:** Fill in: Activity of C=C(CC[C@@H](C)[C@H]1CC[C@H]2C3=C(C(=O)C[C@]12C)[C@@]1(C)CCC(=O)[C@@H](C)[C@@H]1CC3=O)[C@H](C)C(=O)O is ___
**A:** Non-toxic

**Q:** Fill in: Activity of C=C(CC[C@@H](C(=O)O)[C@H]1C[C@H](O)[C@@]2(C)C3=CC[C@H]4C(C)(C)C(=O)CC[C@]4(C)C3=CC[C@]12C)C(C)C is ___
**A:** Non-toxic

**Q:** Fill in: Activity of CC(=O)CC[C@@H](C)[C@H]1CC[C@H]2C3=C(C(=O)C[C@]12C)[C@@]1(C)CCC(=O)[C@@H](C)[C@@H]1CC3=O is ___
**A:** Non-toxic

Consider now this further compound.
**Q:** Fill in: Activity of C=C(CC[C@@H](C)[C@H]1CC[C@H]2C3=C(C(=O)[C@H](O)[C@]12C)[C@@]1(C)CC[C@@H](O)[C@@H](C)[C@@H]1CC3=O)[C@@H](C)C(=O)O is ___
**A:** Non-toxic
